# ASSAY SYSTEM: purified human MAO A Ser209Ala mutant (Homo sapiens, UniProt P21397, S209A)
# ASSAY DETAILS: Competitive inhibition of purified human MAO A Ser209Ala mutant
Where a name gives a salt, the structure may show the parent alone.
# Lookup of reported Ki keyed by entry
I only need the number, in nM, no unit after it.

compound="Cc1ccc2c(c1)c1c3n2CCNC3CCC1 (centres unmarked) [Pirlindole Mesylate, pirlindole mesylate]" measurement=880

Req: Consider the compound shown here: C[C@H](N)Cc1ccccc1 [d-Amphetamine, d-amphetamine] What is its recorded Ki?
Resp: 4720

====

Catalogue of molecules with associated pKi
# ASSAY SYSTEM: purified human MAO A Ser209Glu mutant (Homo sapiens, UniProt P21397, S209E)
# Sequence (P21397 1-527 S209E): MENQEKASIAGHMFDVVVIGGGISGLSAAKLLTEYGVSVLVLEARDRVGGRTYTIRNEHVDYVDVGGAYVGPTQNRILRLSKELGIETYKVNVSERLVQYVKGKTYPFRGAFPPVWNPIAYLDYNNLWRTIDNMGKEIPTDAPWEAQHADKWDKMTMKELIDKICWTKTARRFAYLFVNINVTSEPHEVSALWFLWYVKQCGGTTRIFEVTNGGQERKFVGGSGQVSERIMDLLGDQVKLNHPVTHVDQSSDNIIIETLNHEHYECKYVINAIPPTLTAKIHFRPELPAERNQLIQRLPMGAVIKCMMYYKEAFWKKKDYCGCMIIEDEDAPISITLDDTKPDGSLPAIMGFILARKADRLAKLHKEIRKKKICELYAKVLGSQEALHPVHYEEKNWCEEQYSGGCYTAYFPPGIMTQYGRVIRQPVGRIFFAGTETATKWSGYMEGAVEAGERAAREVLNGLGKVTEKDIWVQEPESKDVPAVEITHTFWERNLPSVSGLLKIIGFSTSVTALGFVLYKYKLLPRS
# ASSAY DETAILS: Competitive inhibition of purified human MAO A Ser209Glu mutant
Counter-ions that a name gives are not always drawn.
// pKi: -log10(molar conc.)

molecule=C[C@H](N)Cc1ccccc1 measurement=3.22

Now let's try a different one.
Req: Quick one: pKi of Cc1ccc2c(c1)c1c3n2CCNC3CCC1 (centres unmarked) [Pirlindole Mesylate, pirlindole mesylate] ?
Resp: 4.67
